Tested on: KM12 colon
Test: NCI-60 one-dose screen, 48 h
Details: 10 µM unless noted
Procedure: Growth inhibition of the KM12 human tumor cell line is measured as a screen for anti-cancer activity. Cells are grown in 96 well plates and exposed to the test compound for 48 hours. Compounds are tested at a single concentration, which is 10^-5 M for most compounds. The reported endpoint is percent growth (GI% or GIPRCNT), where numbers from 0 - 100% represent growth inhibition, and numbers from -100% - 0 represent cell death. For example, a value of 40 represents 60% growth inhibition. […]
This is part of a sample that, as a whole, favours compounds with a hit. Of some 83,000 tested, about 20% had one in any assay. Active and inactive are the calls of the source. The calls were made as follows: active = growth percent below 10; inactive = the rest.
Possible outcomes: class 1 (active), class 0 (inactive)

COMPOUND	DISCRETE LABEL
CCC(CC)(c1ccccc1)C(OC(N)=O)c1ccccc1 (configuration not stated)	class 0
O=C(c1cccs1)C1NO[N+]([O-])=C1c1cccs1 (configuration not stated)	class 0
COc1ccc(CN2CCN(Cc3ccccc3)CC2)c(O)c1	class 0
FC(F)=C(F)c1ccccc1	class 0
CCCC(C)(C)c1ccc2c(c1)OC(C)(C)[C@@H]1CC=C(C)C[C@@H]21	class 0
Cc1cc(C)nc(C)c1.[Cl][Hg][Cl]	class 0
c1ccc2nc(OCCN3CC3)ccc2c1	class 0
Oc1ccc(O)c2c1C1(Cl)C(Cl)=C(Cl)C2(Cl)C1(Cl)Cl	class 0
Clc1ccc(SSC(Cl)(Cl)Cl)cc1	class 0
COc1ccc(OC)c(/C=C(/C)[N+](=O)[O-])c1	class 0
CC1(C)N=C(N)N=C(N)N1c1ccc(CCCCc2ccc(S(=O)(=O)F)cc2)c(Cl)c1	class 0
NC(=O)C(Br)CBr (configuration not stated)	class 0
O=C(NCCNC(=O)c1ccc([As](O)O)cc1)c1ccc([As](O)O)cc1	class 0
CC12CCC(=O)C=C1CCC1C2CCC2(C)C(C(=O)COC(=O)Cc3ccc(N(CCCl)CCCl)cc3)CCC12 (configuration not stated)	class 0
CNC(=O)Oc1cc(C(C)C)ccc1Sc1ccc(C(C)C)cc1OC(=O)NC	class 0
Cc1cc(NC(=O)CCc2ccc(N3C(N)=NC(N)=NC3(C)C)cc2)ccc1S(=O)(=O)F	class 0
COC(=O)C[Se]C(=O)c1ccccc1OC(C)=O	class 0
O=C(O)C1(Br)CC12c1ccccc1-c1ccccc12 (configuration not stated)	class 0
CC(C)(C)[Si](C)(C)OC1[C@@H](O[Si](C)(C)C(C)(C)C)[C@@H](CNC(=O)NC(=O)CF)O[C@H]1n1cnc2c(NC(=O)Nc3ccccc3)ncnc21 (some centres not stated)	class 0
Nc1c(Br)cc([N+](=O)[O-])cc1[N+](=O)[O-]	class 0
[O]=[Sn]([CH]1CCCCC1)[CH]1CCCCC1	class 1
CCN(CC)CCOc1c(C(C)C)cccc1C(C)C	class 0
COc1ccc(/C=C(/C(=O)N2CCCC2)c2cc(OC)c(OC)c(OC)c2)cc1N	class 0
ClCCN(CCCl)c1ccc(C=NCCc2c[nH]c3ccccc23)cc1	class 0
CC(N)Cc1ccc(O)cc1 (configuration not stated)	class 0
O=C1NC(=S)NC(=O)C1=Cc1ccccc1	class 0
O=C1NC(=O)C(CN2C(=O)C3(c4ccccc42)[C@H](Cl)C(=O)N3c2ccccc2)C(=O)N1 (some centres not stated)	class 0
O=[N+]([O-])c1cc([N+](=O)[O-])c(Cl)c(Cl)c1Cl	class 0
CC1(C)N=C(N)N=C(N)N1c1ccc(OCCCCOc2ccc(S(=O)(=O)F)cc2)c(Cl)c1	class 1
O=C(N/N=C/c1ccc([N+](=O)[O-])o1)c1cc([N+](=O)[O-])cc([N+](=O)[O-])c1O	class 0
C=C=[CH][Sn]([c]1ccccc1)([c]1ccccc1)[c]1ccccc1	class 1
CCC1([N+](=O)[O-])COP(=O)(NCc2cccnc2)OC1 (configuration not stated)	class 0
CC[C@@H](C)/C=C(C)/C=C/C(=O)c1c(O)c(-c2ccc(O)cc2)cn(O)c1=O	class 0
O=S(=O)(c1ccc(Cl)cc1)C(Cl)(Cl)Cl	class 0
CCC(C)[C@H]1O[C@]2(C=C[C@@H]1C)C[C@@H]1C[C@@H](C/C=C(\C)[C@@H](OC3C[C@H](OC)C(O[C@H]4C[C@H](OC)[C@@H](O)[C@H](C)O4)[C@H](C)O3)[C@@H](C)/C=C/C=C3\CO[C@@H]4[C@H](O)C(C)=C[C@@H](C(=O)O1)[C@]34O)O2 (some centres not stated)	class 1
CC1(C)N=C(N)N=C(N)N1c1ccc(CCC(=O)Nc2cccc(S(=O)(=O)F)c2)cc1	class 0
CN1CC2CCC(C1)C2=O	class 0
Nc1nc(N)c(-c2ccc(Cl)c(Cl)c2)c(/C=C/c2ccc(S(=O)(=O)F)cc2)n1	class 0
CCCCCCCC(=O)OCC/C=C/C1OC1C1OC(=O)/C=C\C=C\c2nc(oc2C)/C=C(/C)CCC2OC2C1OC(=O)NC(C)=O (configuration not stated)	class 1
COc1c(O)c2c3c(c1OC)-c1ccccc1CC3N(C)CC2 (configuration not stated)	class 0
O=C1NC2(CCNCC2)Nc2ccccc21	class 0
Nc1ccc([N+](=O)[O-])c2c1Oc1ccccc1O2	class 0

====

system: MDA-MB-231 breast; experiment: NCI-60 one-dose screen, 48 h; conditions: 10 µM unless noted
Compounds without any hit were thinned out: in the full panel of roughly 83,000, 20% have a hit. The source made the active and inactive calls. The calls were made as follows: active = growth percent below 10; inactive = the rest.
Labels: True for active, False for inactive

>>> print(df.to_string())
                                    compound     assayed_target  discrete_label
 0        COc1cc(C2(C#N)CCN(C)CC2)cc(OC)c1OC  MDA-MB-231 breast           False
 1                        NCCc1cc(O)c(O)cc1O  MDA-MB-231 breast           False
 2  CC1=C(SCCC(=O)OCC(=O)NCCC[Te]c2ccccc2)C(=O)c2ccccc2C1=O  MDA-MB-231 breast            True
 3    O=[N+]([O-])c1ccc(F)c([N+](=O)[O-])c1F  MDA-MB-231 breast           False
 4  COc1cc(/C=C\c2cc(OC)c(OC)c(OC)c2)cc(N/C=C\C(=O)c2ccc(OC(F)(F)F)cc2)c1OC  MDA-MB-231 breast            True
 5  C[C@]12CC[C@H](OC3OC(O)C(O)C(O)C3O)C=C1CCC1C2CC[C@]2(C)[C@@H](c3ccc(=O)oc3)CC[C@]12O (stereo partly specified)  MDA-MB-231 breast            True
 6  O=C1C=CC(=O)C2C1C1(Cl)C(Cl)=C(Cl)C2(Cl)C1(Cl)Cl (stereo unspecified)  MDA-MB-231 breast           False
 7  COc1ccc(C(=O)c2ccc([As]=O)cc2)cc1 (stereo unspecified)  MDA-MB-231 breast            True
 8                 O=C1NC2(CCNCC2)Nc2ccccc21  MDA-MB-231 breast           False
 9                          CN(Cc1cccnc1)N=O  MDA-MB-231 breast           False
10    Nc1cccc(CC(=O)Nc2ccc(S(=O)(=O)F)cc2)c1  MDA-MB-231 breast           False
11  O=C(CCCN1CCC2(CC1)C(=O)NCN2c1ccc(F)cc1)c1ccc(F)cc1  MDA-MB-231 breast           False
12  O=CN1N=C(c2ccccc2)CC1c1sc(N(CCCl)CCCl)nc1Cl (stereo unspecified)  MDA-MB-231 breast           False
13             O=C(O)c1[nH]c(=O)[nH]c(=O)c1F  MDA-MB-231 breast           False
14  Oc1ccc2c3c1O[C@H]1c4[nH]c5ccccc5c4C[C@@]4(O)C(C2)N(CC2CC2)CC[C@]314  MDA-MB-231 breast           False
15  CC1(C)N=C(N)N=C(N)N1c1ccc(OCCCCNC(=O)Nc2cccc(S(=O)(=O)F)c2)c(Cl)c1  MDA-MB-231 breast           False
16  CC(=O)OC1CCC2(C)C(=CCC3C4CC(CN5CC5)C(=O)C4(C)CCC32)C1 (stereo unspecified)  MDA-MB-231 breast           False
17                         CN1CC2CCC(C1)C2=O  MDA-MB-231 breast           False
18  C/C(=C\C(=O)O[C@H]1[C@@H]2[C@H](C)CC[C@H]2[C@]2(C)O[C@@]1(C1CCCCC1)C[C@H]2OC(=O)CO)c1ccccc1  MDA-MB-231 breast           False
19  CC(=O)O[C@H]1CCC2(C)C(=CCC3C2CCC2(C)/C(=N/OC(=O)c4ccc(N(CCCl)CCCl)cc4)CCC32)C1 (stereo partly specified)  MDA-MB-231 breast           False
20  CCCC(C)(C)c1ccc2c(c1)OC(C)(C)[C@@H]1CC=C(C)C[C@@H]21  MDA-MB-231 breast           False

From: PubChem BioAssay (NCI)
